- target: Luciferin 4-monooxygenase (Photinus pyralis)
- protocol_description: qHTS profiling assay for firefly luciferase inhibitor/activator using purifed enzyme and Km concentrations of substrates (counterscreen for miR-21 project); also: nearly all actives have a fitted effect of over 55% in size; also: potency is read from the fitted curve at half-maximal effect
- condition_parameters: purified FLuc, luminescence inhibition; series mostly up to 57.5 µM
Hit rate of the full screen: of about 360,000 compounds, about 25,000 (6.9%) were called active. Another 9% or so got no clear call; they are omitted. Shown is part of a subset that was picked to be rich in actives.
metric: Potency

Previously resolved entries follow.
# compound, target, Potency
measured = [
    ("Cc1cc(C)cc(NC(=O)NC2CCCCCCC2)c1", "Luciferin 4-monooxygenase (Photinus pyralis)", "10.7 µM (active)"),
    ("C/C(CC(=O)Nc1cccc(F)c1)=N\\NC(=O)C(=O)NC1CCCCC1", "Luciferin 4-monooxygenase (Photinus pyralis)", "inactive"),
    ("Cc1ccc(-n2nc(C)c3c(C)cc(=O)n(CC(=O)Nc4ccc(C(C)C)cc4)c32)cc1", "Luciferin 4-monooxygenase (Photinus pyralis)", "inactive"),
    ("CC(C)c1ccc(NC(=O)NC2CCCCC2)cc1", "Luciferin 4-monooxygenase (Photinus pyralis)", "6.75 µM (active)"),
    ("CCc1ccccc1NC(=O)N1CCN(C(=O)c2nsc3ccccc23)CC1", "Luciferin 4-monooxygenase (Photinus pyralis)", "inactive"),
]

// sample CCc1ccc(NC(=O)N2CCN(C(=O)c3nsc4ccccc34)CC2)cc1 , its Potency was inactive

Record CC(NC(=O)CCc1cn(Cc2ccccc2Cl)c2ccccc12)c1ccccc1 (stereo not drawn) . Reported Potency: inactive

Input CCc1nnc(NC(=O)C2CCN(C(=O)c3ccccc3C)CC2)s1 . Output Potency: inactive

Given item COc1ccc(Cc2nc3ccc(C(=O)NCc4ccccc4C)cc3o2)cc1 , the value recorded as its Potency is inactive

Entry C=CCNC(=S)NNC(=O)COc1c(Cl)cc(Cl)cc1Cl ; Potency = inactive

Item: Cc1ccc(NC(=O)NC2CCCCC2)cc1S(=O)(=O)N1CCOCC1 | Potency: inactive

Measured Potency, CSCCNC(=O)c1ccc2nc(Cc3ccccc3F)oc2c1 : 19 µM (active)

====

- target: Luciferin 4-monooxygenase (Photinus pyralis) (UniProt P08659)
- Sequence (P08659 whole entry, looked up): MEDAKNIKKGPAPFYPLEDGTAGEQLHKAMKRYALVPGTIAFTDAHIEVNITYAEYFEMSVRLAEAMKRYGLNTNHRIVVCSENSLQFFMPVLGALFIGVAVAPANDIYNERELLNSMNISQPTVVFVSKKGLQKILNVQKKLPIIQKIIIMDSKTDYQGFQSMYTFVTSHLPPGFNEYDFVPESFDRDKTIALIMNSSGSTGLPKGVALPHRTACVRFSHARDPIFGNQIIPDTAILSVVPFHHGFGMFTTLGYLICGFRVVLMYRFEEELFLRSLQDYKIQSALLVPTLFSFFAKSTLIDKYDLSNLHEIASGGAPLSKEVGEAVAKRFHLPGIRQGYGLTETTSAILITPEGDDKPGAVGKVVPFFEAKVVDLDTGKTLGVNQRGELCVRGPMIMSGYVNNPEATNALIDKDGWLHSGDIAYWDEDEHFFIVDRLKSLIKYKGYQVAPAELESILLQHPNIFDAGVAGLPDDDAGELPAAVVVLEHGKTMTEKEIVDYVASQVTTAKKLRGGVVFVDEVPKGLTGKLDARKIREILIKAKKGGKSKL
- protocol_description: qHTS profiling assay for firefly luciferase inhibitor/activator using purifed enzyme and Km concentrations of substrates (counterscreen for miR-21 project); also: nearly all actives have a fitted effect of over 55% in size
- condition_parameters: purified FLuc, luminescence inhibition; series mostly up to 57.5 µM
The campaign covered roughly 360,000 compounds. About 25,000 (6.9%) were called active. Inconclusive results (about 9%) are left out. Calls follow the shape of the dose curve; as a rule, active = well fitted inhibition curve with a large enough effect; inconclusive = small, poorly fitted or top-dose-only effect; inactive = flat fitted curve, though single readings scatter. Only a selection was taken, and actives are over-represented in it overall.
Reply using exactly one outcome from y (active), n (inactive)

Give the logged outcome of this assay for the following compound: O=C(NC1CCN(S(=O)(=O)c2ccc(F)cc2)CC1)c1ccccc1
n

Could you please tell me the result logged for CCN(C(=O)Cn1c(=O)nc(-c2ccccc2)c2cc(Cl)ccc21)c1cccc(C)c1 in this assay?
n

Answer briefly: the call reported for CCc1ccccc1NC(=O)c1ccc2nc(CCc3ccccc3)oc2c1 in this assay.
n

Kindly provide the recorded test outcome for the following compound: OCC1(Cc2ccccc2)CCN(Cc2cc3ccccc3o2)CC1
n

For this compound, state the assay outcome: COc1ccc(C(=O)NC(=S)NC2CCCCC2)cc1
y

For COC(=O)C1=CO[C@@H](O[C@@H]2O[C@H](CO)[C@@H](O)[C@H](O)[C@H]2O)C2C1C[C@H](O)[C@@H]2C (stereo partly specified) , what call appears in the results of this test?
n

Could you please tell me the result logged for Cc1nc(SCC(=O)N2CCN(c3ccccc3)CC2)[nH]c(=O)c1C in this assay?
n

Name the outcome recorded for CCCOc1ccc(C2c3c(-c4ccccc4O)n[nH]c3C(=O)N2Cc2cccnc2)cc1 (stereo unspecified) in the assay.
n

What call does the record list for Cc1ccc2nc(C)c3c(c2c1)N(c1ccccc1)CC3 ?
n

Assay result, entry C=CCNC(=O)c1ccc2c3n(nc2c1)-c1ccc(C)cc1CO3 — outcome?
y

Field: outcome | Entry: Cc1ccccc1CN(c1ccc(C(=O)NCC2CCCO2)cc1)S(C)(=O)=O (stereo unspecified)
n

Test call for this compound, please: COc1cccc(NC(=O)c2ccc3nc(CCc4ccccc4)oc3c2)c1
y

Assay outcome for CCc1nc(SCC(=O)NNC(=O)c2ccc(C)cc2)c2ccccc2n1 : what was it?
n

// return assay outcome for O=C(NC1CCCC1)c1cc(-c2ccccc2)on1
y

# fetch the recorded call for COCCNC(=O)c1cc(-c2cccc(Cl)c2)on1 here
n

Hi team, can someone confirm the assay call for O=C(NCC1CCCO1)c1ccccc1-c1nc(-c2ccccc2Cl)no1 (stereo unspecified) ?
y

What outcome does the record of this test show for CC(C#N)(NC(=O)CN1CCN(S(=O)(=O)c2cc(C(F)(F)F)ccc2Cl)CC1)C1CC1 (stereo unspecified) ?
n

Please let me know the test result on file for O=C(CSCc1c(F)cccc1Cl)NCC1CCCO1 (stereo unspecified) .
n

Assay result, entry CCc1ccc(NC(=O)CCNS(=O)(=O)c2cccs2)cc1 — outcome?
n

Test call for this compound, please: Cc1ccc(C(=O)NNc2ncnc3ccccc23)cc1
y

Which result was noted for this compound in the test: O=C(Nc1ccccc1C(=O)NCC1CCCO1)c1ccccc1F (stereo unspecified)
n
